Test system: c-Abl (mouse)
Assay: phosphorylation enrichment, bacterial display (enrichment ratio); higher = better substrate or ligand; peptides without Tyr show the background;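 also: 11-residue human phosphosite peptides and single-mutation variants displayed on the E. coli surface, counted by deep sequencing, each peptide's frequency after selection divided by its frequency in the unselected input library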;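 also: frequency after pTyr selection over input frequency; kinase dosed for 20-30% of maximal phosphorylation in three min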
Hi there, I'd appreciate the recorded phosphorylation enrichment for every entry that follows.
Response field accepts a number only; no unit should be typed.

Record GFEVVYVTEPI [HSP90AB1_Y512_M513V] / c-Abl (mouse), phosphorylation enrichment recorded as 0.641

Record LVSCTYQLATG [FGFR2_Y608_R612T] / c-Abl (mouse), phosphorylation enrichment recorded as 0.83

Record LFLACYFIGGG [UBD_Y161_C162F] / c-Abl (mouse), phosphorylation enrichment recorded as 1.03

Record DYYDLYGGEKK [PTPN11_Y66_F71K] / c-Abl (mouse), phosphorylation enrichment recorded as 0.945

Record LLNAIYLSAKR [SERPING1_Y294_W299R] / c-Abl (mouse), phosphorylation enrichment recorded as 1.61

Record PDSVDYPKKGF [CTSK_Y121_R122P_YF] / c-Abl (mouse), phosphorylation enrichment recorded as 2.12

Record AEPDIYQEKLS [USP54_Y1233] / c-Abl (mouse), phosphorylation enrichment recorded as 0.692

Record DALDNYVVRGV [PCCA_Y473_I475V] / c-Abl (mouse), phosphorylation enrichment recorded as 0.674

Record PVRIAYGRPRG [SUGP2_Y985_D986G] / c-Abl (mouse), phosphorylation enrichment recorded as 0.5

Record TYGNLYGSRKQ [YIPF7_Y59_A54T] / c-Abl (mouse), phosphorylation enrichment recorded as 0.864

Record ENAGFYFRVSA / c-Abl (mouse), phosphorylation enrichment recorded as 0.831

Record RHRSGYVLIAM [EFR3A_Y73] / c-Abl (mouse), phosphorylation enrichment recorded as 0.528

Record GKSDPYHATTG [GJA1_Y247_S251T] / c-Abl (mouse), phosphorylation enrichment recorded as 0.476

Record NLSVPYDSSLK [ABCC8_Y1353_R1352P] / c-Abl (mouse), phosphorylation enrichment recorded as 0.516

---

Target: EPHB2 (UniProt P29323)
Sequence (P29323 whole entry, looked up): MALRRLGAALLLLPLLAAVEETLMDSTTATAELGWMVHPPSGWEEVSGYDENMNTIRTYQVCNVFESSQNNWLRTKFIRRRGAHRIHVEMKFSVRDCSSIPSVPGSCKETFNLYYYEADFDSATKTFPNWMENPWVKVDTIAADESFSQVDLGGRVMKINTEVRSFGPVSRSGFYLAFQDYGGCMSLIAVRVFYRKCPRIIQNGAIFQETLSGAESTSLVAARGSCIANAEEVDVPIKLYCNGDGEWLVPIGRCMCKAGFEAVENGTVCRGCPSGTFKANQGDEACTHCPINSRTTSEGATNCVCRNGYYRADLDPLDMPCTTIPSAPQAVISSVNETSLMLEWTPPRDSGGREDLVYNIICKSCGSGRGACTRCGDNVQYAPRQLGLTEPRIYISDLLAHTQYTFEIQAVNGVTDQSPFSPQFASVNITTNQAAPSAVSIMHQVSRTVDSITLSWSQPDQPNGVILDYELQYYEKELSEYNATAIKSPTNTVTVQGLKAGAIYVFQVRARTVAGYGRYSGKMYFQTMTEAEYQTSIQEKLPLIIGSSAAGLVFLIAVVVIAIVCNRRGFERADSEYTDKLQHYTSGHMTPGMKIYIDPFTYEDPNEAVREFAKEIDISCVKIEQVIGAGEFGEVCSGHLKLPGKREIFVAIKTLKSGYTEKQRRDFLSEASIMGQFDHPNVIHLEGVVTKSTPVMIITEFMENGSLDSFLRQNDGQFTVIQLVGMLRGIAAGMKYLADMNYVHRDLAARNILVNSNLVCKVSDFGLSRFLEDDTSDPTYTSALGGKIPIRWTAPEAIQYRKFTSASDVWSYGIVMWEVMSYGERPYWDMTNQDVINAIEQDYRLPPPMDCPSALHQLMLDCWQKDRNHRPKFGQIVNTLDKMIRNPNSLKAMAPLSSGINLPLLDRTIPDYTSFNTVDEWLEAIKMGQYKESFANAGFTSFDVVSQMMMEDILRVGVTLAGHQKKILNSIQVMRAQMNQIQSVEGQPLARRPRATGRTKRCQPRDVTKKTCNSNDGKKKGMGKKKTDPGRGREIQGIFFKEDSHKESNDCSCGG
Assay: phosphorylation enrichment, bacterial display (enrichment ratio); higher = better substrate or ligand; peptides without Tyr show the background
Readout label: phosphorylation enrichment
Response field accepts a number only; no unit should be typed.

So, FFRNVYHLASV [RBL1_Y796_K794N_YF] ? Its phosphorylation enrichment was 0.515

So, VHFARYLAMNK [HARS1_Y138_P134H] ? Its phosphorylation enrichment was 0.555

So, ASELGYVFQAI [UROD_Y133] ? Its phosphorylation enrichment was 0.566

So, IVEFAYNDKAV [PUM3_Y259_I264V_YF] ? Its phosphorylation enrichment was 0.632

So, YSMGCYEISLG [HMGCL_Y198] ? Its phosphorylation enrichment was 1.18

So, GPCKAYELSQR [SETX_Y1297_R1294C] ? Its phosphorylation enrichment was 0.63

So, TFVKSYTIHFS [F5_Y2153_M2148T_YF] ? Its phosphorylation enrichment was 0.468

So, KASRKYYAMKI [AKT3_Y173_G171R] ? Its phosphorylation enrichment was 0.304

So, TNIKRYHIAKG [HARS1_Y150_V155G] ? Its phosphorylation enrichment was 0.39

So, PVQAAYRKVVA [HBB_Y131_Q132R] ? Its phosphorylation enrichment was 0.237

So, MARDIYRASYY [ALK_Y1278] ? Its phosphorylation enrichment was 0.439

So, RDMMDYMPQGV [CYP21A2_Y259_L261P] ? Its phosphorylation enrichment was 1.28

So, SVVVHYEPPEV [TP53_Y220_P219H] ? Its phosphorylation enrichment was 0.616

So, FTNRSYDLDYD [MYC_Y12_N11S] ? Its phosphorylation enrichment was 0.841
